# Test Details: Tissue distribution after single oral dose
# Format: in vivo, mice
# Condition Description: KM, mouse, brain; 30 h; oral 500 mg·kg^−1, female mice; read-out: Concentration in Brain
Measured Property: concentration at 30 h (ng/g)
Only the number, expressed in ng/g, is required.

Q: Quick one: concentration at 30 h for CC(C)=C/C=C/[C@H](C)[C@H]1CC[C@]2(C)C[C@@H]3C(C)=CC(=O)[C@H]3/C(C=O)=C\C[C@@H]12 [MHO7, 6-epi-ophiobolin G] ?
Ans: 10

====

# Test Details: Log D by shaking flask method (n-octanol/phosphate buffer)
# Format: physicochemical
# Condition Description: 37 °C, octanol/PBS pH 1.5, 48 h, read-out: Log P/D Value O/P (pH 1.5)
Measured Property: logD at 48 h

Q: What measured logD at 48 h goes with CC(C)=C/C=C/[C@H](C)[C@H]1CC[C@]2(C)C[C@@H]3C(C)=CC(=O)[C@H]3/C(C=O)=C\C[C@@H]12 [MHO7, 6-epi-ophiobolin G] ?
Ans: 1.12

====

# Test Details: Tissue distribution after single oral dose
# Assay type: in vivo, mice
# Condition Description: KM, mouse, kidney; 12 h; oral 500 mg·kg^−1, female mice; read-out: Concentration in Kidney
Measured Property: concentration at 12 h (ng/g)
Provide only the numeric value, understood in ng/g.

Q: Look at this compound and give its reported concentration at 12 h. CC(C)=C/C=C/[C@H](C)[C@H]1CC[C@]2(C)C[C@@H]3C(C)=CC(=O)[C@H]3/C(C=O)=C\C[C@@H]12 [MHO7, 6-epi-ophiobolin G]
Ans: 8160

====

# Test Details: Log D by shaking flask method (n-octanol/phosphate buffer)
# Assay type: physicochemical
# Condition Description: 37 °C, octanol/PBS pH 1.5, 24 h, read-out: Log P/D Value O/P (pH 1.5)
Measured Property: logD at 24 h
No unit in the answer, please; the number alone is enough.

Q: Would you kindly share the measured logD at 24 h for CC(C)=C/C=C/[C@H](C)[C@H]1CC[C@]2(C)C[C@@H]3C(C)=CC(=O)[C@H]3/C(C=O)=C\C[C@@H]12 [MHO7, 6-epi-ophiobolin G] ?
Ans: 1.13

====

# Test Details: Plasma pharmacokinetics after single oral dose
# Assay type: in vivo
# Condition Description: KM, mouse; mice plasma, single oral 500 mg·kg^−1, female mice
Measured Property: half-life

Q: Would you mind telling me what half-life value was observed for CC(C)=C/C=C/[C@H](C)[C@H]1CC[C@]2(C)C[C@@H]3C(C)=CC(=O)[C@H]3/C(C=O)=C\C[C@@H]12 [MHO7, 6-epi-ophiobolin G] ?
Ans: 6.97 h

====

# Test Details: Tissue distribution after single oral dose
# Assay type: in vivo, mice
# Condition Description: KM, mouse, reproductive organs (uterus, fallopian tube and ovary); 1 h; oral 500 mg·kg^−1, female mice; read-out: Concentration in Reproductive organs
Measured Property: concentration at 1 h (ng/g)
// return numeric value only (unit: ng/g, not printed)

Q: Which concentration at 1 h is reported for this molecule? CC(C)=C/C=C/[C@H](C)[C@H]1CC[C@]2(C)C[C@@H]3C(C)=CC(=O)[C@H]3/C(C=O)=C\C[C@@H]12 [MHO7, 6-epi-ophiobolin G]
Ans: 880

====

# Test Details: Acute toxicity / maximum tolerated dose, oral
# Format: in vivo, mice
# Condition Description: both sexes, mouse, in vivo, 2400 mg·kg^−1; oral administration, male and female KM mice; read-out: maximum tolerable dose (MTD)
Measured Property: MTD at 2 weeks (mg/kg)
Numeric answer only, unit mg/kg assumed.

Q: # query: MTD at 2 weeks of entry CC(C)=C/C=C/[C@H](C)[C@H]1CC[C@]2(C)C[C@@H]3C(C)=CC(=O)[C@H]3/C(C=O)=C\C[C@@H]12 [MHO7, 6-epi-ophiobolin G]
Ans: 2400

====

# Test Details: Log D by shaking flask method (n-octanol/phosphate buffer)
# Format: physicochemical
# Condition Description: 37 °C, octanol/PBS pH 1.5, 4 h, read-out: Log P/D Value O/P (pH 1.5)
# Experimental: An HPLC system (Shimadzu, Japan) was equipped with a LC-20AD binary pump system, a SIL-20AD auto sampler, a CBM-20A system controller, and a CTO-20A oven. […] The phases of distilled water and n-octanol were saturated with each other by shaking for 48 h with 250 rpm in a shaking water bath prior to use. […] The samples of both phases were collected at 0, 4, 8, 12, 24, 30, 36 and 48 h, diluted with methanol (1:1, V) and determined by HPLC with the detection wavelength of 234 nm. […]
Measured Property: logD at 4 h
Just the number, please.

Q: Quick one: logD at 4 h of CC(C)=C/C=C/[C@H](C)[C@H]1CC[C@]2(C)C[C@@H]3C(C)=CC(=O)[C@H]3/C(C=O)=C\C[C@@H]12 [MHO7, 6-epi-ophiobolin G] ?
Ans: 1.29

====

# Test Details: Tissue distribution after single oral dose
# Type: in vivo, mice
# Condition Description: KM, mouse, fat (white adipose tissue); 12 h; oral 500 mg·kg^−1, female mice; read-out: Concentration in Fat
Measured Property: concentration at 12 h (ng/g)
Write down the numeric answer in ng/g and omit the unit.

Q: Which concentration at 12 h is listed for CC(C)=C/C=C/[C@H](C)[C@H]1CC[C@]2(C)C[C@@H]3C(C)=CC(=O)[C@H]3/C(C=O)=C\C[C@@H]12 [MHO7, 6-epi-ophiobolin G] ?
Ans: 740

====

# Test Details: Tissue distribution after single oral dose
# Type: in vivo, mice
# Condition Description: KM, mouse, spleen; 30 h; oral 500 mg·kg^−1, female mice; read-out: Concentration in Spleen
# Description: The animals and treatment methods were the same as in the pharmacokinetic studies. Afterwards, the biological samples (n = 6 per group) were collected at 1, 4, 8, 12, 20, and 30 h, and the tissues including heart, liver, spleen, lung, kidney, stomach, intestine, brain, muscle (hind limb), fat (white adipose tissue ), reproductive organs (uterus, fallopian tube and ovary) stomach and its contents, and intestine and its contents, and the blood samples were simultaneously collected. […]
Measured Property: concentration at 30 h (ng/g)
Numeric only. Scale: ng/g

Q: Fill in: concentration at 30 h of CC(C)=C/C=C/[C@H](C)[C@H]1CC[C@]2(C)C[C@@H]3C(C)=CC(=O)[C@H]3/C(C=O)=C\C[C@@H]12 [MHO7, 6-epi-ophiobolin G] is ___
Ans: 10

====

# Test Details: Tissue distribution after single oral dose
# Assay type: in vivo, mice
# Condition Description: female, KM, mouse, heart / plasma; over 1-30 h; oral 500 mg·kg^−1; read-out: tissue/plasma concentration ratio range, heart
Measured Property: Kp

Q: What does the data say about its Kp? Entry: CC(C)=C/C=C/[C@H](C)[C@H]1CC[C@]2(C)C[C@@H]3C(C)=CC(=O)[C@H]3/C(C=O)=C\C[C@@H]12 [MHO7, 6-epi-ophiobolin G]
Ans: 0.31 to 4.2

====

# Test Details: Plasma pharmacokinetics after single oral dose
# Assay type: in vivo
# Condition Description: KM, mouse; mice plasma, single oral 500 mg·kg^−1, female mice
Measured Property: AUC (ng·h/mL)
Numeric answer only, unit ng·h/mL assumed.

Q: Entry under review: CC(C)=C/C=C/[C@H](C)[C@H]1CC[C@]2(C)C[C@@H]3C(C)=CC(=O)[C@H]3/C(C=O)=C\C[C@@H]12 [MHO7, 6-epi-ophiobolin G] . Reported AUC?
Ans: 10500

====

# Test Details: Tissue distribution after single oral dose
# Assay type: in vivo, mice
# Condition Description: female, KM, mouse, lung; over 1-30 h; oral 500 mg·kg^−1; read-out: tissue/plasma concentration ratio range, lung
# Description: The animals and treatment methods were the same as in the pharmacokinetic studies. Afterwards, the biological samples (n = 6 per group) were collected at 1, 4, 8, 12, 20, and 30 h, and the tissues including heart, liver, spleen, lung, kidney, stomach, intestine, brain, muscle (hind limb), fat (white adipose tissue ), reproductive organs (uterus, fallopian tube and ovary) stomach and its contents, and intestine and its contents, and the blood samples were simultaneously collected. […]
Measured Property: Kp

Q: Entry CC(C)=C/C=C/[C@H](C)[C@H]1CC[C@]2(C)C[C@@H]3C(C)=CC(=O)[C@H]3/C(C=O)=C\C[C@@H]12 [MHO7, 6-epi-ophiobolin G] : reported Kp = ?
Ans: 0.72 to 6.84

====

# Test Details: Log D by shaking flask method (n-octanol/phosphate buffer)
# Type: physicochemical
# Condition Description: 37 °C, octanol/PBS pH 1.5, 30 h, read-out: Log P/D Value O/P (pH 1.5)
Measured Property: logD at 30 h
Provide a numeric answer; units are not to be included.

Q: Which logD at 30 h value is on record for CC(C)=C/C=C/[C@H](C)[C@H]1CC[C@]2(C)C[C@@H]3C(C)=CC(=O)[C@H]3/C(C=O)=C\C[C@@H]12 [MHO7, 6-epi-ophiobolin G] ?
Ans: 1.12

// provenance: paper PMC6950057
